This listing pairs molecules with measured IC50.
tested on: SKBR3 (PI3Kα-Wild Type) cell line; experiment: HTRF phospho-AKT(S473) cell assay in SKBR3 cells; type: cell-based, human; conditions: Homo sapiens, SK-BR-3; SKBR3 (PI3Kα-Wild Type) cells, HTRF phospho-AKT(S473), 2 hours compound incubation, PDGF-BB stimulated

As a guide, the following entries are already answered.
Cc1cc([C@@H](C)Nc2ccc(Cl)nc2C(=O)NS(=O)(=O)N(C)C)c2nc(N3Cc4ccc(F)cc4C3)n(C)c(=O)c2c1 [Compound 67] | ≥ 5 µM
Cc1ccc(N[C@H](C)c2cc(F)cc3c(=O)n(C)c(N4Cc5ccc(F)cc5C4)nc23)c(C(=O)NS(C)(=O)=O)n1 [Compound 61] | ≥ 5 µM
Cc1cc([C@@H](C)Nc2ccc(Cl)nc2C(=O)NS(C)(=O)=O)c2nc(N3CCC(F)(F)CC3)n(C)c(=O)c2c1 [Compound 57] | 1 to 5 µM
Cc1cc([C@@H](C)Nc2ccc(Cl)nc2C(=O)NS(C)(=O)=O)c2nc(N3CCc4cn(CC(F)(F)F)nc4C3)n(C)c(=O)c2c1 [Compound 214] | 1 to 5 µM
Cc1cc([C@@H](C)Nc2ccc(Cl)nc2C(=O)NS(C)(=O)=O)c2nc(N3CCC[C@H](c4cc[nH]n4)C3)n(C)c(=O)c2c1 (relative stereo) [Compound 213] | 1 to 5 µM
Cc1cc([C@@H](C)Nc2cc(F)cnc2C(=O)NS(C)(=O)=O)c2nc(N3Cc4ccc(F)cc4C3)n(C)c(=O)c2c1 [Compound 68] | ≥ 5 µM
Cc1cc([C@@H](C)Nc2ccc(Cl)nc2C(=O)NS(C)(=O)=O)c2nc(N3CCC(c4cnccn4)CC3)n(C)c(=O)c2c1 [Compound 398] | ≥ 5 µM
Cc1cc([C@@H](C)Nc2ccc(Cl)nc2C(=O)NS(C)(=O)=O)c2nc(NC3CCCC3)n(C)c(=O)c2c1 [Compound 11] | ≥ 5 µM
Cc1cc([C@@H](C)Nc2ccc(Cl)nc2C(=O)NS(C)(=O)=O)c2nc(N3CCC(c4cccc(=O)n4C)CC3)n(C)c(=O)c2c1 [Compound 370] | 1 to 5 µM
CC(=O)NS(=O)(=O)c1nc(Cl)ccc1N[C@H](C)c1cc(C)cc2c(=O)n(C)c(N3CCC(F)(F)CC3)nc12 [Compound 78] | 1 to 5 µM

What value of IC50 has been recorded for this entry: Cc1cc([C@@H](C)Nc2ccc(Cl)nc2C(=O)NS(C)(=O)=O)c2nc(N3C[C@@H]4[C@H](C3)[C@H]4c3ccn(C(C)C)n3)n(C)c(=O)c2c1 [Compound 395]
≥ 5 µM

What value of IC50 has been recorded for this entry: C[C@@H](Nc1ccc(Cl)[nH]c1=O)c1cc(F)cc2c(=O)n(C)c(N3Cc4cnn(C)c4C3)nc12 [Compound 100]
≥ 5 µM

What value of IC50 has been recorded for this entry: Cc1cc([C@@H](C)Nc2ccc(Cl)nc2C(=O)NS(C)(=O)=O)c2nc(N3C[C@@H]4[C@H](C3)[C@H]4c3cn(C)nc3C)n(C)c(=O)c2c1 [Compound 430]
1 to 5 µM

What value of IC50 has been recorded for this entry: Cc1cc([C@@H](C)Nc2ccc(Cl)nc2C(=O)NS(C)(=O)=O)c2nc(N3CCO[C@@H](C)C3)n(C)c(=O)c2c1 [Compound 36]
1 to 5 µM

What value of IC50 has been recorded for this entry: C[C@@H](Nc1ccc(Cl)nc1C(=O)NS(C)(=O)=O)c1cc(F)cc2c(=O)n(C)c(-c3cccc(F)c3F)nc12 [Compound 87]
≥ 5 µM

What value of IC50 has been recorded for this entry: Cc1cc([C@@H](C)Nc2ccc(Cl)nc2C(=O)NS(C)(=O)=O)c2nc(N3Cc4cn(-c5ccncc5)nc4C3)n(C)c(=O)c2c1 [Compound 192]
1 to 5 µM

What value of IC50 has been recorded for this entry: CNC(=O)NS(=O)(=O)c1nc(Cl)ccc1N[C@H](C)c1cc(C)cc2c(=O)n(C)c(N3Cc4ccc(F)cc4C3)nc12 [Compound 70]
≥ 5 µM

What value of IC50 has been recorded for this entry: Cc1cc([C@@H](C)Nc2ccc(Cl)nc2C(=O)NS(C)(=O)=O)c2nc(N3CCC(c4ccn(C(F)F)n4)CC3)n(C)c(=O)c2c1 [Compound 413]
1 to 5 µM

What value of IC50 has been recorded for this entry: C[C@@H](Nc1ccc(Cl)nc1C(=O)NS(C)(=O)=O)c1cccc2c(=O)n(C)c(N3Cc4ccc(F)cc4C3)nc12 [Compound 23]
1 to 5 µM

====

target: PI3Kα H1047R (Homo sapiens, UniProt P42336, H1047R); assay: PI3Kα H1047R enzyme assay (Transcreener ADP2 TR-FRET Red Assay); conditions: purified recombinant full-length protein; 2 hours pre-incubation with compound
Sequence (P42336 whole entry H1047R): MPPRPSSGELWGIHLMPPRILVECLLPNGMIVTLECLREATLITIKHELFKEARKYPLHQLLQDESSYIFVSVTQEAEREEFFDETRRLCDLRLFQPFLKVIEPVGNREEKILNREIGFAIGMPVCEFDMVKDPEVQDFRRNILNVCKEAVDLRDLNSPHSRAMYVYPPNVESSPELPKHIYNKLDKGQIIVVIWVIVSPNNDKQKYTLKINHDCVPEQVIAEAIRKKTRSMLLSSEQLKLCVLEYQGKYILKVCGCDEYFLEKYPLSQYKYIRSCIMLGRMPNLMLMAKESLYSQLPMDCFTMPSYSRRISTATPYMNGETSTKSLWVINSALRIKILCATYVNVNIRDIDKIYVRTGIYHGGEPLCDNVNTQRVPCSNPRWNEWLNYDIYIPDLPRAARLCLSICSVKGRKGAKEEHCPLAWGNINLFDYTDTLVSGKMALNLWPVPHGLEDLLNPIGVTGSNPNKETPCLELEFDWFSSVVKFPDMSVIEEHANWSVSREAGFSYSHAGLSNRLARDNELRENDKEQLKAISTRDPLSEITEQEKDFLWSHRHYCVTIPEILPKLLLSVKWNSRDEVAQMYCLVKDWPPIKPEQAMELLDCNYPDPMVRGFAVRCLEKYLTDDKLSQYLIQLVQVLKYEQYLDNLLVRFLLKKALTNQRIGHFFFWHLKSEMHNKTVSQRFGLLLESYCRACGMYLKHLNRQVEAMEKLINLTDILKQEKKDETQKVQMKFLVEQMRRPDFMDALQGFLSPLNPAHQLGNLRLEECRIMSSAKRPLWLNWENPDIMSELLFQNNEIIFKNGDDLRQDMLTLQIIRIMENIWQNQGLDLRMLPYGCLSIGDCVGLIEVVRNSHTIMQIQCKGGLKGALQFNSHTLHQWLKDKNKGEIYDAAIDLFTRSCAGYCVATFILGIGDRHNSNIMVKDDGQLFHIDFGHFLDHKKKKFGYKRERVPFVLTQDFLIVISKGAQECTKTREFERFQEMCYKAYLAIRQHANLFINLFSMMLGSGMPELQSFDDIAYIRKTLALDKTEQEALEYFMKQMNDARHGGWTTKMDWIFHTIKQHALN
Sequence (P27986 2-724 partner): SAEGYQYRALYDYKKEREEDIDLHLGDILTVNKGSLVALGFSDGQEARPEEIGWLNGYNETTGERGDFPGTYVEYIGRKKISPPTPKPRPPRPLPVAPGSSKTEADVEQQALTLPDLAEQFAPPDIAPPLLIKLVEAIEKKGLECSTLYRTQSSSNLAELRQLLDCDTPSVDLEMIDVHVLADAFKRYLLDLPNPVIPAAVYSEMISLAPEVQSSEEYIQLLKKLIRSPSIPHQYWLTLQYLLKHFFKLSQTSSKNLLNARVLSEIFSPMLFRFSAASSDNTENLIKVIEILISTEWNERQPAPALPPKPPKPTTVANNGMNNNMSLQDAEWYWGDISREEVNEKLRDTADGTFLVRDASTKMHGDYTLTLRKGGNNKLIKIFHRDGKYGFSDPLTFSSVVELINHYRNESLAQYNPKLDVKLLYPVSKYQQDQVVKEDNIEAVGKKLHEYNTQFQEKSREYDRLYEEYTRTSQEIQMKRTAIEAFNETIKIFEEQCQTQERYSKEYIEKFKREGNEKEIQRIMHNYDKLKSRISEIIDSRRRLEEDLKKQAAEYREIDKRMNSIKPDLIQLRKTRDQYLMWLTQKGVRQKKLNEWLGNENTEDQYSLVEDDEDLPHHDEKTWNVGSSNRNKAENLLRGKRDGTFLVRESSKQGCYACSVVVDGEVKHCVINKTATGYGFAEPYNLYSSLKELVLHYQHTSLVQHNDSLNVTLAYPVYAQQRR
pIC50: −log10 of the molar value.
This listing pairs molecules with measured pIC50.

C[C@@H](Nc1ccc(Cl)nc1C(=O)NS(C)(=O)=O)c1cccc2c(=O)n(C)c(N3Cc4cnn(C)c4C3)nc12 [Compound 38] | 6.00 to 6.30
C[C@@H](Nc1ccc[nH]c1=O)c1cc(F)cc2c(=O)n(C)c(N3Cc4cnn(C)c4C3)nc12 [Compound 98] | ≤ 6.00
Cc1cc([C@@H](C)Nc2ccc(Cl)nc2C(=O)NS(C)(=O)=O)c2nc(N3Cc4ccc(F)cc4C3)n(C)c(=O)c2c1 [Compound 1] | 6.00 to 6.30
C[C@@H](Nc1ccc(Cl)nc1C(=O)NS(C)(=O)=O)c1cc(F)cc2c(=O)n(C)c(-c3cncc(F)c3)nc12 [Compound 90] | ≤ 6.00
C[C@@H](Nc1ccc(Cl)nc1C(=O)NS(C)(=O)=O)c1cc(F)cc2c(=O)n(C)c(N3CCc4ccccc4C3)nc12 [Compound 31] | 6.60 to 7.00

What value of pIC50 has been recorded for this entry: Cc1cc([C@@H](C)Nc2ccc(Cl)nc2C(=O)NS(C)(=O)=O)c2nc(-c3cnc(C)s3)n(C)c(=O)c2c1 [Compound 89]
6.60 to 7.00

What value of pIC50 has been recorded for this entry: Cc1ccc(N[C@H](C)c2cc(F)cc3c(=O)n(C)c(N4Cc5ccc(F)cc5C4)nc23)c(C(=O)NS(C)(=O)=O)n1 [Compound 61]
≤ 6.00

What value of pIC50 has been recorded for this entry: Cc1cc([C@@H](C)Nc2ccc(F)cc2C(=O)NS(C)(=O)=O)c2nc(N3Cc4ccc(F)cc4C3)n(C)c(=O)c2c1 [Compound 63]
≤ 6.00

====

tested on: SKBR3 (PI3Kα-Wild Type) cell line; assay: HTRF phospho-AKT(S473) cell assay in SKBR3 cells; assay type: cell-based, human; settings: Homo sapiens, SK-BR-3; SKBR3 (PI3Kα-Wild Type) cells, HTRF phospho-AKT(S473), 2 hours compound incubation, PDGF-BB stimulated
pIC50: −log10 of the molar value.
This listing pairs compounds with measured pIC50.

Cc1cc([C@@H](C)Nc2ccc(Cl)nc2C(=O)NS(C)(=O)=O)c2nc(N3Cc4cnn(-c5ccccc5C)c4C3)n(C)c(=O)c2c1 | ≤ 5.30
Cc1cc([C@@H](C)Nc2ccc(Cl)nc2C(=O)NS(C)(=O)=O)c2nc(N3CCC(c4ncn(C)n4)CC3)n(C)c(=O)c2c1 | 5.30 to 6.00
Cc1cc([C@@H](C)Nc2ccc(Cl)nc2C(=O)NS(C)(=O)=O)c2nc(N3CCN(c4cnn(CC(F)(F)F)c4)CC3)n(C)c(=O)c2c1 | 5.30 to 6.00
Cc1cc([C@@H](C)Nc2ccc(Cl)nc2C(=O)NS(C)(=O)=O)c2nc(-c3ccc(C)nc3)n(C)c(=O)c2c1 | 5.30 to 6.00

What value of pIC50 has been recorded for this entry: `Cc1cc([C@@H](C)Nc2ccc(Cl)nc2C(=O)NS(C)(=O)=O)c2nc(N3CCN(c4ncccn4)CC3)n(C)c(=O)c2c1`
5.30 to 6.00

====

This listing pairs compounds with measured IC50.
tested on: SKBR3 (PI3Kα-Wild Type) cell line; assay: HTRF phospho-AKT(S473) cell assay in SKBR3 cells; type: cell-based, human; conditions: Homo sapiens, SK-BR-3; SKBR3 (PI3Kα-Wild Type) cells, HTRF phospho-AKT(S473), 2 hours compound incubation, PDGF-BB stimulated

Cc1cc([C@@H](C)Nc2ccc(Cl)nc2C(=O)NS(C)(=O)=O)c2nc(N3C[C@H]4C[C@@H](c5cc[nH]n5)[C@@H]3C4)n(C)c(=O)c2c1 (single isomer, unassigned) [Compound 346] | ≥ 5 µM
Cc1cc([C@@H](C)Nc2ccc(Cl)nc2C(=O)NS(C)(=O)=O)c2nc(N3CCC(C)(c4c(F)cnn4C)CC3)n(C)c(=O)c2c1 [Compound 407] | ≥ 5 µM
Cc1cc([C@@H](C)Nc2ccc(Cl)nc2C(=O)NS(C)(=O)=O)c2nc(N3C[C@@H]4[C@H](C3)[C@H]4c3ccc(C#N)nc3)n(C)c(=O)c2c1 [Compound 402] | 1 to 5 µM

What value of IC50 has been recorded for this entry: CNS(=O)(=O)NC(=O)c1nc(Cl)ccc1N[C@H](C)c1cc(C)cc2c(=O)n(C)c(N3Cc4ccc(F)cc4C3)nc12 [Compound 73]
1 to 5 µM

What value of IC50 has been recorded for this entry: Cc1cc([C@@H](C)Nc2ccc(Cl)nc2C(=O)NS(C)(=O)=O)c2nc(N3CCC[C@H](Oc4cnc(C)cn4)C3)n(C)c(=O)c2c1 [Compound 383]
≥ 5 µM

What value of IC50 has been recorded for this entry: CC(=O)N1CCC2(CC1)CCN(c1nc3c([C@@H](C)Nc4ccc(Cl)nc4C(=O)NS(C)(=O)=O)cc(C)cc3c(=O)n1C)CC2 [Compound 280]
1 to 5 µM

What value of IC50 has been recorded for this entry: Cc1cc([C@@H](C)Nc2ccc(Cl)nc2C(=O)NS(C)(=O)=O)c2nc(N3CCC[C@@H](c4ccc(C)nc4)C3)n(C)c(=O)c2c1 (relative stereo) [Compound 238]
1 to 5 µM

What value of IC50 has been recorded for this entry: Cc1cc([C@@H](C)Nc2ccc(Cl)nc2C(=O)NS(C)(=O)=O)c2nc(N3CCC(n4cccn4)CC3)n(C)c(=O)c2c1 [Compound 199]
1 to 5 µM

What value of IC50 has been recorded for this entry: C[C@@H](Nc1ccc(Cl)nc1C(=O)NS(C)(=O)=O)c1cc(Cl)cc2c(=O)n(C)c(N3CCC(c4nn(C)cc4F)CC3)nc12 [Compound 431]
1 to 5 µM

What value of IC50 has been recorded for this entry: Cc1cc([C@@H](C)Nc2ccc(Cl)nc2C(=O)NS(C)(=O)=O)c2nc(N3CCN(c4ccccn4)CC3)n(C)c(=O)c2c1 [Compound 182]
1 to 5 µM
